Molecular target: T1, corticotropin-releasing hormone (CRH) peptide (human and mouse (same sequence), not fully specified)
T1 peptide: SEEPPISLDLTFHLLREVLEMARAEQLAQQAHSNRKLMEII
Assay: cell-based or functional assay
reported property: hCRHR1 Luciferase Reporter Assay IC50 (nM)
Express your answer in nM, writing the number without its unit.

Sample records with hCRHR1 Luciferase Reporter Assay IC50:
PR302341-2 (antibody, human IgG1, kappa, V domains shown) VH: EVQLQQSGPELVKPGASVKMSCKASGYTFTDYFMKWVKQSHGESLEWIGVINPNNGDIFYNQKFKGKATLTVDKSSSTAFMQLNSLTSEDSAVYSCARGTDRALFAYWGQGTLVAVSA VL: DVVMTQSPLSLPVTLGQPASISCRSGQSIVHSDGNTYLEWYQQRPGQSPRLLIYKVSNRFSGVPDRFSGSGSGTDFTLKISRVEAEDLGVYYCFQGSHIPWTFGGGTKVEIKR; 0.168
PR302341-9 (antibody, human IgG1, kappa, V domains shown) VH: QVQLVQSGAEVKKPGASVKVSCKASGYTFTDYFMKWVRQAPGQGLEWMGVINPNNGDIFYNQKFKGRVTMTVDKSTSTAYMELSSLRSEDTAVYYCARGTDRALFAYWGQGTLVTVSS VL: DIVMTQTPLSSPVTLGQPASISCRSGQSIVHSDGNTYLEWLQQRPGQPPRLLIYKVSNRFSGVPDRFSGSGAGTDFTLKISRVEAEDVGVYYCFQGSHIPWTFGGGTKVEIKR; 0.234
PR302341-14 (antibody, human IgG1, kappa, V domains shown) VH: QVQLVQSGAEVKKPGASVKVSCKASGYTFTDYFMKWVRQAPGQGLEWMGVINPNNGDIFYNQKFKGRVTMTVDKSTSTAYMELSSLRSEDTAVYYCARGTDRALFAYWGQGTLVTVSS VL: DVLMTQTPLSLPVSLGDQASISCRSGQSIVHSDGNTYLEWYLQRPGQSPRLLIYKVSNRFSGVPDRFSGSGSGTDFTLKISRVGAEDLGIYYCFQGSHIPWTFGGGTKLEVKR; 0.075

In the following, a different binder is considered.
*Q* What value of measured hCRHR1 Luciferase Reporter Assay IC50 is listed for PR302341-24 (antibody, human IgG1, kappa, V domains shown) VH: QVQLVQSGAEVKKPGASVKVSCKASGYTFTDYFMKWVRQAPGQRLEWMGVINPNNGDIFYNQKFKGRVTITVDKSASTAYMELSSLRSEDTAVYYCARGTDRALFAYWGQGTLVTVSS VL: DVVMTQTPLSSPVTLGQPASISCRSGQSIVHSDGNTYLEWYQQRPGQPPRLLIYKVSNRFSGVPDRFSGSGAGTDFTLKISRVEAEDLGVYYCFQGSHIPWTFGGGTKVEIKR ?
*A* 0.192
